# Experimental Target: HLA-A*32:01
# Test Protocol: HLA binding; serotype 4
# Applied Conditions: chains peptide; modification not given

{"Binder": "KQWFLDLPL […, serotype 4]", "IC50 / nM": 8}
